Reported inhibition values for a set of compounds
# assay explanation: APP 5'UTR translational reporter suppression – APP 5'UTR luciferase, SH-SY5Y cells, primary screen (AID 1285)
# reported conditions: SH-SY5Y APP 5'UTR-luciferase reporter, luminescence; at 2 µM; active compounds read high
About 1,600 (0.84%) of roughly 190,000 compounds were called active. Shown is part of a subset that was picked to be rich in actives.
Unit % implied. Number only.

Consider the following illustrative entries.
Prompt: Quick one: inhibition of COc1ccc(C)c(Cn2c(-c3nonc3N)nc3ccccc32)c1 ?
Completion: 90.7

Prompt: What about this compound? COc1ccc(N2CCN(C(=O)c3ccc4c(Cl)c5c(nc4c3)CCCC5)CC2)cc1
Completion: -5.5

Prompt: What about this compound? Cc1nnc(-c2ccc(Oc3ccc(C)c(C)c3)c([N+](=O)[O-])c2)o1
Completion: 11.5

Prompt: What about this compound? Cc1ccc(CNC(=O)C2CC(=O)N(C3CCCCCCC3)C2)cc1 (configuration not stated)
Completion: -17.8

Prompt: What about this compound? O=C(N/N=C/c1coc2ccccc2c1=O)c1cc2ccccc2o1
Completion: 0.7

Prompt: What about this compound? CCOc1cc(NC(=O)CCl)c(OCC)cc1NC(C)=O
Completion: 5.3

Prompt: What about this compound? Cc1ccc(/C=N\n2c(-c3ccccc3)n[nH]c2=S)s1
Completion: -4

Prompt: What about this compound? Cc1cccc(CSc2ccc(-c3cccs3)nn2)c1
Completion: -24.9

Prompt: What about this compound? Cc1cc(-c2n[nH]c(=S)n2/N=C/C(Br)=C/c2ccccc2)n[nH]1
Completion: 83.5

Prompt: What about this compound? CC(=O)c1ccc(Oc2cc(C)nc(-n3nc(C)cc3C)n2)cc1
Completion: 93.7

---
Prompt: Quick one: inhibition of CCOC(=O)c1c(NC(=O)C2CC=CCC2C(=O)O)sc(C)c1CC (configuration not stated) ?
Completion: -12.9

Prompt: What about this compound? O=C(NC(=S)Nc1ccc2oc(=O)ccc2c1)c1ccc(-c2cccc(Cl)c2Cl)o1
Completion: 2.2
